Data origin, for the record: patent US7348007B2

tested on: BAGM-EBV cells pulsed with peptide / TIL 2.4 (HLA-B44); experiment: Chromium release: lysis of peptide-pulsed BAGM-EBV cells by TIL 2.4; assay type: cell-based, human; details: TIL 2.4 at 15:1, 4 hours chromium release
PROPERTY: lysis of peptide-pulsed BAGM-EBV cells by TIL 2.4

# CHAIN_SEQUENCE, RESULT
rows = [
    ("ESIKKKVL [octapeptide, truncated nonapeptide]", "failed to induce lysis"),
    ("SESIKKKV [octapeptide, truncated nonapeptide]", "failed to induce lysis"),
    ("SESIKKKVLEF (listed as Homo sapiens) [11 amino acid MAGE-C2 peptide]", "lysed"),
]
